# RUN DESCRIPTION: Human HepG2 cell viability assay in 384 well format
# Type: toxicity, cell-based
# Parameters: dose 125 nL, time 70.5 hour; concentration not given beside the values
# SETTINGS: HepG2 cells, read-out: Inhibition
cytotoxicity at 70.5 h reference
METRIC: cytotoxicity at 70.5 h (%)

[[record]]
compound = "Cc1ccc(CN2CCc3onc(C(=O)NCCN(C)C)c3C2)o1"
value_reported = -8.28

[[record]]
compound = "Cn1c(=O)c2sccc2n(CC(=O)Nc2cccc(Cl)c2)c1=O"
value_reported = 8.96

[[record]]
compound = "CCCn1ccnc1CN1CCc2[nH]cnc2C1Cc1ccccc1 (stereo unspecified)"
value_reported = -4.4

[[record]]
compound = "CC(=O)c1ccc(-n2c(C)cn(CCC#N)c2=O)cc1"
value_reported = 22.1

[[record]]
compound = "CN1N=C(C(=O)NCCc2csc(-c3ccccc3)n2)CCC1=O"
value_reported = -4.18

[[record]]
compound = "O=C(c1ccc(F)c(F)c1)N1CCCC(Nc2ccc(F)cc2)C1 (stereo unspecified)"
value_reported = -5.1

[[record]]
compound = "Cc1nc[nH]c1C(=O)N1CC[C@@H](NC(=O)c2ccccn2)[C@H](O)C1"
value_reported = -1.79

[[record]]
compound = "CC1=C(C#N)C(=O)N(C)C(=O)/C1=C\\C1=Cc2ccccc2OC1"
value_reported = 8.21

[[record]]
compound = "c1ccc2oc(CCCN3CCCCC3Cn3cncn3)nc2c1 (stereo unspecified)"
value_reported = -7.94

[[record]]
compound = "CC(C)CN1CCC2(Cc3ccccc3NC2=O)C1 (stereo unspecified)"
value_reported = -4.52

[[record]]
compound = "CCC(C)N(Cc1cccnc1)Cc1cc2c(cc1OC)OCO2 (stereo unspecified)"
value_reported = 0.778


* * *

# RUN DESCRIPTION: Human HepG2 cell viability assay in 384 well format
# Type: toxicity, cell-based
# Parameters: dose 125 nL, time 70.5 hour; concentration not given beside the values
# SETTINGS: HepG2 cells, read-out: Inhibition
Each entry below carries its recorded cytotoxicity at 70.5 h.
METRIC: cytotoxicity at 70.5 h

[[record]]
molecule = "CCNc1cc2c(nn1)CCN(C(=O)c1ccc(-n3cnnc3)cc1)C2"
metric = "cytotoxicity at 70.5 h"
value_reported = "-0.933%"

[[record]]
molecule = "O=C(c1c[nH]nn1)N1CCCC1C1CCCCC1 (stereo not drawn)"
metric = "cytotoxicity at 70.5 h"
value_reported = "-8.52%"

[[record]]
molecule = "COc1ccc(CCN2CCCC(CN(C)Cc3ccc(C)o3)C2)cc1 (stereo not drawn)"
metric = "cytotoxicity at 70.5 h"
value_reported = "-5.02%"

[[record]]
molecule = "COCCN1CC[C@@H]2CN(Cc3cccnc3OC)C[C@@H]2C1"
metric = "cytotoxicity at 70.5 h"
value_reported = "13.9%"

[[record]]
molecule = "OCC(O)CSCc1cn(-c2ccc(Cl)cc2)nn1 (stereo not drawn)"
metric = "cytotoxicity at 70.5 h"
value_reported = "0.0879%"

[[record]]
molecule = "Cc1cc(NC(=O)NCCOc2ccc(Cl)cn2)no1"
metric = "cytotoxicity at 70.5 h"
value_reported = "-3.43%"

[[record]]
molecule = "COc1cc(C#N)ccc1OC12CCCN(CC1)C2 (stereo not drawn)"
metric = "cytotoxicity at 70.5 h"
value_reported = "-8.26%"

[[record]]
molecule = "CN1CCCC(c2ccc(N3CCOCC3)cn2)C1 (stereo not drawn)"
metric = "cytotoxicity at 70.5 h"
value_reported = "-3.9%"

[[record]]
molecule = "Cc1ccc(S(=O)(=O)NC(=O)CCOCc2ccccc2)s1"
metric = "cytotoxicity at 70.5 h"
value_reported = "-10.6%"

[[record]]
molecule = "COCC1CN(S(=O)(=O)c2ccccc2)Cc2ncnn2C1 (stereo not drawn)"
metric = "cytotoxicity at 70.5 h"
value_reported = "-6.59%"

[[record]]
molecule = "CCN(CC(C)C#N)C(=O)CNc1ccc(C(N)=O)c(C)c1 (stereo not drawn)"
metric = "cytotoxicity at 70.5 h"
value_reported = "-1.05%"

[[record]]
molecule = "Cc1cccc(CN2C[C@@H]3COC[C@]3(CNC(=O)C3CCC3)C2)c1"
metric = "cytotoxicity at 70.5 h"
value_reported = "-7.15%"

[[record]]
molecule = "CC(=O)N(Cc1ncc(C)o1)C1CCN(CCOc2ccccc2)C1 (stereo not drawn)"
metric = "cytotoxicity at 70.5 h"
value_reported = "17.4%"

[[record]]
molecule = "Clc1ccc(-n2cc(CNC3CCc4ncnn4C3)cn2)cc1 (stereo not drawn)"
metric = "cytotoxicity at 70.5 h"
value_reported = "-12.4%"

[[record]]
molecule = "CCn1c(C)cc(C(=O)N2CCCC(n3nc(C)nc3C)C2)c1C (stereo not drawn)"
metric = "cytotoxicity at 70.5 h"
value_reported = "-7.33%"

[[record]]
molecule = "O=S(=O)(C1CC1)N1CCC2(CCCN(c3ncc(F)cn3)C2)C1 (stereo not drawn)"
metric = "cytotoxicity at 70.5 h"
value_reported = "-11.2%"

[[record]]
molecule = "COc1ccc(NC(=O)COc2nn(C)c3nc(C)cc(C)c23)cn1"
metric = "cytotoxicity at 70.5 h"
value_reported = "-18.4%"

[[record]]
molecule = "CCOCC(=O)N(C)c1ccc(F)c(Cl)c1"
metric = "cytotoxicity at 70.5 h"
value_reported = "-2.55%"

[[record]]
molecule = "Cc1noc2ncnc(N3CCC(O)(Cn4ccnc4)CC3)c12"
metric = "cytotoxicity at 70.5 h"
value_reported = "4.45%"

[[record]]
molecule = "CSCC(=O)N1CCN(CC(O)C(C)(C)C)CC1 (stereo not drawn)"
metric = "cytotoxicity at 70.5 h"
value_reported = "-10.6%"

[[record]]
molecule = "CC1CN(c2ccc(CNC(=O)NCCO)cn2)CCO1 (stereo not drawn)"
metric = "cytotoxicity at 70.5 h"
value_reported = "-8.22%"

[[record]]
molecule = "CC(C)CNC(=O)c1cc2c(s1)CCN2Cc1cccnc1"
metric = "cytotoxicity at 70.5 h"
value_reported = "-1.22%"

[[record]]
molecule = "Cn1cccc1-c1cc(C(=O)N2CCCCC2c2ccc(F)cc2)[nH]n1 (stereo not drawn)"
metric = "cytotoxicity at 70.5 h"
value_reported = "-3.93%"

[[record]]
molecule = "O=C(NCC1CC1)C1=NOC2(CCN(Cc3ccsc3)C2)C1 (stereo not drawn)"
metric = "cytotoxicity at 70.5 h"
value_reported = "-7.31%"

[[record]]
molecule = "O=C(Nc1ccccn1)c1csc(NC2CCCC2)n1"
metric = "cytotoxicity at 70.5 h"
value_reported = "1.59%"

[[record]]
molecule = "Cc1ccc(CNCC2CCN(CCO)CC2)cc1"
metric = "cytotoxicity at 70.5 h"
value_reported = "39.2%"

[[record]]
molecule = "CN(C)CCN1CCN(Cc2nccs2)Cc2cccnc21"
metric = "cytotoxicity at 70.5 h"
value_reported = "2.78%"

[[record]]
molecule = "Cc1cnc(C)c(N2CCC3(CCCN(C4CCOCC4)C3=O)C2)n1 (stereo not drawn)"
metric = "cytotoxicity at 70.5 h"
value_reported = "-8.78%"

[[record]]
molecule = "CCS(=O)(=O)N1CCc2nc(C3CCN(C(=O)C4CC4)C3)nc(O)c2C1 (stereo not drawn)"
metric = "cytotoxicity at 70.5 h"
value_reported = "-1.94%"

[[record]]
molecule = "CC(C)c1ncc2c(n1)CN(Cc1nc(-c3cccnc3)no1)CC2"
metric = "cytotoxicity at 70.5 h"
value_reported = "13.2%"

[[record]]
molecule = "CN(C)C(=O)CO[C@@H]1CN(Cc2ccccc2F)[C@@H]2CCCO[C@@H]21"
metric = "cytotoxicity at 70.5 h"
value_reported = "-6.14%"

[[record]]
molecule = "O=C(c1cnccn1)N1CCC2(CC1)C(=O)NCC2c1ccccc1 (stereo not drawn)"
metric = "cytotoxicity at 70.5 h"
value_reported = "-6.72%"

[[record]]
molecule = "O=C(Cc1ccccc1Cl)Nc1cnn(C2CCOC2)c1 (stereo not drawn)"
metric = "cytotoxicity at 70.5 h"
value_reported = "-14%"

[[record]]
molecule = "O=C(CN1CCOC(Cn2cccn2)C1)Nc1ccncc1 (stereo not drawn)"
metric = "cytotoxicity at 70.5 h"
value_reported = "-3.63%"

[[record]]
molecule = "O=C(COc1ccc2c(c1)OCC2O)NCc1ccco1 (stereo not drawn)"
metric = "cytotoxicity at 70.5 h"
value_reported = "-0.449%"

[[record]]
molecule = "COc1cccc(CN2C[C@@H]3COC[C@]3(COCc3ccncc3)C2)c1"
metric = "cytotoxicity at 70.5 h"
value_reported = "5.79%"

[[record]]
molecule = "Cc1ccc(C(C(=O)NCCc2nc(C)cc(C)n2)N(C)C)cc1 (stereo not drawn)"
metric = "cytotoxicity at 70.5 h"
value_reported = "-4.39%"

[[record]]
molecule = "Cn1c(CN2CCOCC2)cc(=O)c(O)c1CN1CCCC1"
metric = "cytotoxicity at 70.5 h"
value_reported = "-6.51%"

[[record]]
molecule = "CC(C)Cc1noc(CN(C)C(=O)C2COc3ccccc3C2)n1 (stereo not drawn)"
metric = "cytotoxicity at 70.5 h"
value_reported = "-14.4%"

[[record]]
molecule = "CCC(C)Nc1ccc(-c2nc(-c3cccc(OC)c3OC)no2)cn1 (stereo not drawn)"
metric = "cytotoxicity at 70.5 h"
value_reported = "13.1%"

[[record]]
molecule = "Cc1cc(N2CCCC(O)CC2)n2nc(C)c(C)c2n1 (stereo not drawn)"
metric = "cytotoxicity at 70.5 h"
value_reported = "1.18%"

[[record]]
molecule = "CCC[C@@H]1CN(Cc2ccccc2-c2ccco2)C[C@H]1NC(C)=O"
metric = "cytotoxicity at 70.5 h"
value_reported = "-5.42%"

[[record]]
molecule = "Cc1nnn2c1COC(CNC(=O)c1cccn1C)C2 (stereo not drawn)"
metric = "cytotoxicity at 70.5 h"
value_reported = "-14.1%"

[[record]]
molecule = "O=C1COC2(CCN(C(=O)c3ccco3)CC2)CN1Cc1cccnc1"
metric = "cytotoxicity at 70.5 h"
value_reported = "-8.01%"

[[record]]
molecule = "Cn1cc(C2COC3(CCN(C(=O)c4cccn4C)CC3)C2)cn1 (stereo not drawn)"
metric = "cytotoxicity at 70.5 h"
value_reported = "14.2%"

[[record]]
molecule = "CCOCCn1c(=O)[nH]c2cc(C(=O)N(C)CCc3cn[nH]c3)ccc21"
metric = "cytotoxicity at 70.5 h"
value_reported = "18.1%"

[[record]]
molecule = "CC(NC(=O)c1ccc(CS(C)(=O)=O)o1)c1ccc(F)c(F)c1 (stereo not drawn)"
metric = "cytotoxicity at 70.5 h"
value_reported = "-3.42%"

[[record]]
molecule = "CCCn1[nH]cc/c1=N\\C(=O)CN1CCOC(Cn2cc(C)cn2)C1 (stereo not drawn)"
metric = "cytotoxicity at 70.5 h"
value_reported = "-14.6%"

